system: p190- and p210-BCR-ABL1 expressing Ba/F3 cells; assay: Survival of BCR-ABL1 expressing Ba/F3 cells, trypan blue exclusion; type: cell-based, murine; details: Mus musculus, BaF3; grown in the presence of IL-3, 72-hour time point; read-out: half maximal effective concentration (EC50), cell survival
METRIC NAME: pEC50
Value format note: pEC50 is -log10 of concentration (mol/L); just state the number.

Tell me the measured pEC50 of OC1(c2ccccc2)NC(=Nc2nc3ccccc3[nH]2)N=C1c1ccccn1 (stereo not shown) , please. 6.42
